Reference for the values: the RNAGym collection of RNA variant scans (doi:10.7554/elife.90254)

B1: LINE1-mini (parent)
chain: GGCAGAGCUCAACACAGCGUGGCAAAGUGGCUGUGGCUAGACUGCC

Variants of: B1
Assay: self-cleavage, relative activity (ratio to wild type); higher = more cleavage; in vitro, sequencing; the parent is a self-cleaving ribozyme
assayReadout: self-cleavage

Request: Reported self-cleavage for C23A A41G : what is it?
Result: 0.43

Request: self-cleavage lookup needed for A14C G21A , thanks.
Result: 0.17

Request: Request the reported self-cleavage associated with A24C U43C
Result: 0.1

Request: Returns the measured self-cleavage for the input variant. Input: C18A C23U
Result: 1.29

Request: Which self-cleavage is reported for this variant? C31U C46U
Result: 0.23

Request: Please report the recorded self-cleavage for G29A C37U .
Result: 0.05

Request: Which self-cleavage value belongs to G2U G29A ?
Result: 0.09

Request: So what does the record say about self-cleavage for G1A A16U ?
Result: 0.1

Request: Look up self-cleavage: G21U C42G
Result: 0.04

Request: What self-cleavage value was documented for this variant, C18G C42U ?
Result: 0.05

Request: I'd like to know its self-cleavage. The variant in question is A26U C37U
Result: 0.08
